target: T1, monovalent hVISTA-ECD with polyhistidine tail (SEQ ID NO: 325) (human, UniProt Q9H7M9 33-193); test: SPR, mAb captured on Protein A chip, hVISTA injected, PBST pH 6.0, 37 C
T1 construct: also called hVISTA-ECD 6-His tag; human VISTA
T1 sequence (Q9H7M9 other isoform, or with tags, fused parts or gaps limits assumed): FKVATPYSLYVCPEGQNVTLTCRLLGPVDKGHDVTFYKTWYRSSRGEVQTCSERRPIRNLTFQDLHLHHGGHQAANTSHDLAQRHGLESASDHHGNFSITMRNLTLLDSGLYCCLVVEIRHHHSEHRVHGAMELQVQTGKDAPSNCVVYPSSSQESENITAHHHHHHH
measured.quantity: pKd
Note on pKd: it is the negative log10 of concentration, concentration in mol/L.

P1-077881 (P1-068748 D58Y D100S) (antibody, V domains shown, Reversion mutant of P1-068748 (Kabat names); captured on a Protein A chip) VH: QVQLVESGGGVVQPGRSLRLSCAASGFTFSHHAMHWVRQAPGKGLEWVAIIWYDGSNDYYADSVKGRFTISRDNSKNTLYLQMNSLRAEDTAVYYCARDSGFYSSYYFDYWGQGTLVTVSS VL: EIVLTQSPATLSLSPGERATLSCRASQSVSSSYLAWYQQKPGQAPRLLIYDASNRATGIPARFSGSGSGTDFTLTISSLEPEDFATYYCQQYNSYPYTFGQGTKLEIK; 7.28

Q: Given P1-077867 (P1-068748 H32Y) (antibody, V domains shown, Reversion mutant of P1-068748 (Kabat names); captured on a Protein A chip) VH: QVQLVESGGGVVQPGRSLRLSCAASGFTFSHYAMHWVRQAPGKGLEWVAIIWYDGSNDDYADSVKGRFTISRDNSKNTLYLQMNSLRAEDTAVYYCARDSGFYDSYYFDYWGQGTLVTVSS VL: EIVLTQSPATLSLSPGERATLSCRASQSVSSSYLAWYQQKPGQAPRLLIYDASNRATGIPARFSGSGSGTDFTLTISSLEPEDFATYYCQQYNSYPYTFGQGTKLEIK , state its recorded pKd.
A: 8.66

Q: Again, but for P1-077891 (P1-068748 H32Y D100S) (antibody, V domains shown, Reversion mutant of P1-068748 (Kabat names); captured on a Protein A chip) VH: QVQLVESGGGVVQPGRSLRLSCAASGFTFSHYAMHWVRQAPGKGLEWVAIIWYDGSNDDYADSVKGRFTISRDNSKNTLYLQMNSLRAEDTAVYYCARDSGFYSSYYFDYWGQGTLVTVSS VL: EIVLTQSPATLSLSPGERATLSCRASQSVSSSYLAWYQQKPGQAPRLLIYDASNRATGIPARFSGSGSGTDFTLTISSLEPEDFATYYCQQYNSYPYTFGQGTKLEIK
A: 9.44
